Recorded combination Emax by entry
- Tested on: LS-411N (Colorectal Carcinoma)
- MEASUREMENT_NOTES: combination Emax (second highest fraction inhibited in the dose matrix, 72 h); higher = more inhibition; extreme values may be limits of the assay

[
  {
    "COMPOUND": "CN(CCO)CC[C@H](CSc1ccccc1)Nc1ccc(S(=O)(=O)NC(=O)c2ccc(N3CCC([C@@H](O)c4ccccc4-c4ccc(Cl)cc4)CC3)cc2)cc1S(=O)(=O)C(F)(F)F [AZD4320] + C[C@@H]1COCCN1C2=NC(=NC(=C2)C3(CC3)[S@](=N)(=O)C)C4=C5C=CNC5=NC=C4 [AZD6738] (first compound max 1 µM, 7x7, partner max 10 µM)",
    "SYSTEM_TESTED": "LS-411N (Colorectal Carcinoma)",
    "combination Emax": 0.943
  },
  {
    "COMPOUND": "COc1nnc2ccc(N3CCC(c4ccc(OCCN5CCN(C)C(=O)[C@H]5C)cc4)CC3)nn12 [AZD5153] + CC1(C)CCC(CN2CCN(c3ccc(C(=O)NS(=O)(=O)c4ccc(NCC5CCOCC5)c([N+](=O)[O-])c4)c(Oc4cnc5[nH]ccc5c4)c3)CC2)=C(c2ccc(Cl)cc2)C1 [Venetoclax] (first compound max 1 µM, 7x7, partner max 1 µM)",
    "SYSTEM_TESTED": "LS-411N (Colorectal Carcinoma)",
    "combination Emax": 0.728
  },
  {
    "COMPOUND": "CC1(C)CCC(CN2CCN(c3ccc(C(=O)NS(=O)(=O)c4ccc(NCC5CCOCC5)c([N+](=O)[O-])c4)c(Oc4cnc5[nH]ccc5c4)c3)CC2)=C(c2ccc(Cl)cc2)C1 [Venetoclax] + COc1cc(Nc2ncc3c(n2)-c2ccc(Cl)cc2C(c2c(F)cccc2OC)=NC3)ccc1C(=O)O [Alisertib] (first compound max 1 µM, 7x7, partner max 10 µM)",
    "SYSTEM_TESTED": "LS-411N (Colorectal Carcinoma)",
    "combination Emax": 0.0718
  },
  {
    "COMPOUND": "NC1(C(=O)N[C@@H](CCO)c2ccc(Cl)cc2)CCN(c2ncnc3[nH]ccc23)CC1 [Capivasertib] + CC(=O)c1c(C)c2cnc(Nc3ccc(N4CCNCC4)cn3)nc2n(C2CCCC2)c1=O [Palbociclib] (first compound max 10 µM, 7x7, partner max 10 µM)",
    "SYSTEM_TESTED": "LS-411N (Colorectal Carcinoma)",
    "combination Emax": 0.628
  },
  {
    "COMPOUND": "Cc1cc2ncnn2cc1Nc1ncc2c(n1)n(C1CCOCC1)c(=O)n2C [AZD7648] + C[C@@H]1COCCN1C2=NC(=NC(=C2)C3(CC3)[S@](=N)(=O)C)C4=C5C=CNC5=NC=C4 [AZD6738] (first compound max 10 µM, 7x7, partner max 10 µM)",
    "SYSTEM_TESTED": "LS-411N (Colorectal Carcinoma)",
    "combination Emax": 0.723
  },
  {
    "COMPOUND": "CN(CCO)CC[C@H](CSc1ccccc1)Nc1ccc(S(=O)(=O)NC(=O)c2ccc(N3CCC([C@@H](O)c4ccccc4-c4ccc(Cl)cc4)CC3)cc2)cc1S(=O)(=O)C(F)(F)F [AZD4320] + C=CCn1c(=O)c2cnc(Nc3ccc(N4CCN(C)CC4)cc3)nc2n1-c1cccc(C(C)(C)O)n1 [AZD1775] (first compound max 1 µM, partner max 1 µM)",
    "SYSTEM_TESTED": "LS-411N (Colorectal Carcinoma)",
    "combination Emax": 0.938
  },
  {
    "COMPOUND": "CN(CCO)CC[C@H](CSc1ccccc1)Nc1ccc(S(=O)(=O)NC(=O)c2ccc(N3CCC([C@@H](O)c4ccccc4-c4ccc(Cl)cc4)CC3)cc2)cc1S(=O)(=O)C(F)(F)F [AZD4320] + CN(C)CCCOc1ccc(-c2ccc3ncc4c(c3c2)n(C2CCOCC2)c(=O)n4C)cn1 [AZD0156] (first compound max 1 µM, 7x7, partner max 1 µM)",
    "SYSTEM_TESTED": "LS-411N (Colorectal Carcinoma)",
    "combination Emax": 0.199
  },
  {
    "COMPOUND": "C=CCn1c(=O)c2cnc(Nc3ccc(N4CCN(C)CC4)cc3)nc2n1-c1cccc(C(C)(C)O)n1 [AZD1775] + O=C(c1cc(Cc2n[nH]c(=O)c3ccccc23)ccc1F)N1CCN(C(=O)C2CC2)CC1 [Olaparib] (first compound max 1 µM, partner max 10 µM)",
    "SYSTEM_TESTED": "LS-411N (Colorectal Carcinoma)",
    "combination Emax": 0.417
  },
  {
    "COMPOUND": "Cc1c2c(nn1C)CSCc1cc(n(C)n1)CSc1cc(c3ccccc3c1)OCCCc1c(C(=O)O)n(C)c3c-2c(Cl)ccc13 [AZD5991] + CN(C)CCCOc1ccc(-c2ccc3ncc4c(c3c2)n(C2CCOCC2)c(=O)n4C)cn1 [AZD0156] (first compound max 1 µM, 7x7, partner max 1 µM)",
    "SYSTEM_TESTED": "LS-411N (Colorectal Carcinoma)",
    "combination Emax": 0.136
  },
  {
    "COMPOUND": "CC1(C)CCC(CN2CCN(c3ccc(C(=O)NS(=O)(=O)c4ccc(NCC5CCOCC5)c([N+](=O)[O-])c4)c(Oc4cnc5[nH]ccc5c4)c3)CC2)=C(c2ccc(Cl)cc2)C1 [Venetoclax] + Cn1cnc2c(F)c(Nc3ccc(Br)cc3Cl)c(C(=O)NOCCO)cc21 [Selumetinib] (first compound max 1 µM, 7x7, partner max 3 µM)",
    "SYSTEM_TESTED": "LS-411N (Colorectal Carcinoma)",
    "combination Emax": 0.526
  },
  {
    "COMPOUND": "COc1cccc(OCCCN)c1-c1cc(Nc2cnc(C#N)cn2)n[nH]1 [Prexasertib] + O=C(c1cc(Cc2n[nH]c(=O)c3ccccc23)ccc1F)N1CCN(C(=O)C2CC2)CC1 [Olaparib] (first compound max 1 µM, 7x7, partner max 10 µM)",
    "SYSTEM_TESTED": "LS-411N (Colorectal Carcinoma)",
    "combination Emax": 0.498
  },
  {
    "COMPOUND": "CC(=O)Nc1cccc(-n2c(=O)n(C3CC3)c(=O)c3c(Nc4ccc(I)cc4F)n(C)c(=O)c(C)c32)c1 [Trametinib] + Cc1nc(-c2cn3c(n2)-c2ccc(-c4cnn(C(C)(C)C(N)=O)c4)cc2OCC3)n(C(C)C)n1 [Taselisib] (first compound max 1 µM, 7x7, partner max 10 µM)",
    "SYSTEM_TESTED": "LS-411N (Colorectal Carcinoma)",
    "combination Emax": 0.946
  },
  {
    "COMPOUND": "COc1cc2c(cc1OCCCCCOc1cc3c(cc1OC)C(=O)N1C=C(C)C[C@H]1C=N3)N=C[C@@H]1CC(C)=CN1C2=O [SG3199] + O=C(c1cc(Cc2n[nH]c(=O)c3ccccc23)ccc1F)N1CCN(C(=O)C2CC2)CC1 [Olaparib] (first compound max 0.001 µM, 7x7, partner max 10 µM)",
    "SYSTEM_TESTED": "LS-411N (Colorectal Carcinoma)",
    "combination Emax": 0.0262
  },
  {
    "COMPOUND": "COc1nnc2ccc(N3CCC(c4ccc(OCCN5CCN(C)C(=O)[C@H]5C)cc4)CC3)nn12 [AZD5153] + Cn1cnc2c(F)c(Nc3ccc(Br)cc3Cl)c(C(=O)NOCCO)cc21 [Selumetinib] (first compound max 1 µM, 7x7, partner max 10 µM)",
    "SYSTEM_TESTED": "LS-411N (Colorectal Carcinoma)",
    "combination Emax": 0.997
  }
]

* * *

- Tested on: COLO-792 (Melanoma)
- MEASUREMENT_NOTES: combination Emax (second highest fraction inhibited in the dose matrix, 72 h); higher = more inhibition; extreme values may be limits of the assay
READOUT: combination Emax

[
  {
    "COMPOUND": "COc1cc2c(cc1OCCCCCOc1cc3c(cc1OC)C(=O)N1C=C(C)C[C@H]1C=N3)N=C[C@@H]1CC(C)=CN1C2=O [SG3199] + O=C(c1cc(Cc2n[nH]c(=O)c3ccccc23)ccc1F)N1CCN(C(=O)C2CC2)CC1 [Olaparib] (first compound max 0.001 µM, 7x7, partner max 10 µM)",
    "VALUE": 0.109
  },
  {
    "COMPOUND": "COc1cccc(OCCCN)c1-c1cc(Nc2cnc(C#N)cn2)n[nH]1 [Prexasertib] + C=CCn1c(=O)c2cnc(Nc3ccc(N4CCN(C)CC4)cc3)nc2n1-c1cccc(C(C)(C)O)n1 [AZD1775] (first compound max 1 µM, partner max 1 µM)",
    "VALUE": 0.593
  },
  {
    "COMPOUND": "NC1(C(=O)N[C@@H](CCO)c2ccc(Cl)cc2)CCN(c2ncnc3[nH]ccc23)CC1 [Capivasertib] + COc1nnc2ccc(N3CCC(c4ccc(OCCN5CCN(C)C(=O)[C@H]5C)cc4)CC3)nn12 [AZD5153] (first compound max 10 µM, 7x7, partner max 1 µM)",
    "VALUE": 0.94
  },
  {
    "COMPOUND": "Cc1c2c(nn1C)CSCc1cc(n(C)n1)CSc1cc(c3ccccc3c1)OCCCc1c(C(=O)O)n(C)c3c-2c(Cl)ccc13 [AZD5991] + CCN(CCO)CCCOc1ccc2c(Nc3cc(CC(=O)Nc4cccc(F)c4)[nH]n3)ncnc2c1 [AZD2811] (first compound max 1 µM, 7x7, partner max 1 µM)",
    "VALUE": 0.977
  }
]
